Source listed as PubChem BioAssay AID2060610.

Test system: 616215-338-R-J1-PDC complex spheroids, viability % test/control
Assay: Anticancer human tumor 616215-338-R-J1-PDC patient-derived colon adenocarcinoma cell line growth inhibition [CLK]
Settings: second compound 0.1 µM; first compound 0.0316 µM; hits give low values
Excerpt: A high-throughput screen of multi-cell type tumor spheroids was designed to identify active combinations of […] and targeted small molecules. Complex spheroids include a stromal component modeled by human endothelial cells (HUVEC) and fibroblasts modeled by human mesenchymal stem cells (MSCs). […] Compounds. […] If the clinical Cmax for an agent had not been determined, the highest concentration tested was 10 microM. […]
List of viability, T/C values.
Your answer is read as %, so omit the unit and give the number.

{"Molecule": "O=c1[nH]cc(F)c(=O)[nH]1 + CN1CCN(c2cc(C(=O)Nc3cc4cc(-c5cnn(C)c5)ccc4cn3)ccn2)CC1", "viability, T/C / %": 121}
{"Molecule": "CC(=O)O[C@H]1C(=O)[C@@]2(C)[C@H]([C@H](OC(=O)c3ccccc3)[C@]3(O)C[C@H](OC(=O)[C@H](O)[C@@H](NC(=O)c4ccccc4)c4ccccc4)C(C)=C1C3(C)C)[C@]1(OC(C)=O)CO[C@@H]1C[C@@H]2O + CN1CCN(c2cc(C(=O)Nc3cc4cc(-c5cnn(C)c5)ccc4cn3)ccn2)CC1", "viability, T/C / %": 31.1}
{"Molecule": "C=CC(=O)N1CCN(c2nc(=O)n(-c3c(C)ccnc3C(C)C)c3nc(-c4c(O)cccc4F)c(F)cc23)C(C)C1 (stereo not given) + CN1CCN(c2cc(C(=O)Nc3cc4cc(-c5cnn(C)c5)ccc4cn3)ccn2)CC1", "viability, T/C / %": 116}
{"Molecule": "CC(Nc1ccc2c(c1)OCCn1cc(N3C(=O)OCC3C(F)F)nc1-2)C(N)=O (stereo not given) + CN1CCN(c2cc(C(=O)Nc3cc4cc(-c5cnn(C)c5)ccc4cn3)ccn2)CC1", "viability, T/C / %": 105}

Now look at this one.
What value of viability, T/C has been recorded for this entry: Cn1ncnc1[C@H]1c2n[nH]c(=O)c3cc(F)cc(c23)N[C@@H]1c1ccc(F)cc1 + CNC(=O)c1ccc(Nc2nc(OC3CCCC3)c3c(-c4ccc5nc(C)oc5c4)c[nH]c3n2)c(OC)c1
59.8

====

Tested on: 616215-338-R-J1-PDC complex spheroids, viability % test/control
Test: Anticancer human tumor 616215-338-R-J1-PDC cell line growth inhibition [CLK]; active = viability on the fitted dose curve at most 10% of control; inactive = the rest;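 note: spheroids exposed to agents for 7 days; 100% = DMSO vehicle wells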
Conditions: second compound 0.1 µM; first compound 0.03 µM
Hi! Could you answer with just one of these? 1.0 = active, 0.0 = inactive

Examples with answers:
{"Molecule": "C=CC(=O)Nc1cc(Nc2nccc(-c3cn(C)c4ccccc34)n2)c(OC)cc1N(C)CCN(C)C + CNC(=O)c1ccc(Nc2nc(OC3CCCC3)c3c(-c4ccc5nc(C)oc5c4)c[nH]c3n2)c(OC)c1", "Classification": 0.0}
{"Molecule": "NC(=O)C(=Cn1cnc(-c2cc(C(F)(F)F)cc(C(F)(F)F)c2)n1)c1cncnc1 + CNC(=O)c1ccc(Nc2nc(OC3CCCC3)c3c(-c4ccc5nc(C)oc5c4)c[nH]c3n2)c(OC)c1", "Classification": 0.0}
{"Molecule": "NC(=O)C(=Cn1cnc(-c2cc(C(F)(F)F)cc(C(F)(F)F)c2)n1)c1cncnc1 + CN1CCN(c2cc(C(=O)Nc3cc4cc(-c5cnn(C)c5)ccc4cn3)ccn2)CC1", "Classification": 0.0}
{"Molecule": "CC(C)CC(NC(=O)C(Cc1ccccc1)NC(=O)c1cnccn1)B(O)O (stereo unspecified) + CN1CCN(c2cc(C(=O)Nc3cc4cc(-c5cnn(C)c5)ccc4cn3)ccn2)CC1", "Classification": 1.0}
{"Molecule": "CC(C)CC(NC(=O)C(Cc1ccccc1)NC(=O)c1cnccn1)B(O)O (stereo unspecified) + CNC(=O)c1ccc(Nc2nc(OC3CCCC3)c3c(-c4ccc5nc(C)oc5c4)c[nH]c3n2)c(OC)c1", "Classification": 1.0}

Could you kindly confirm the outcome this assay logged for C=CC(=O)Nc1cc(Nc2nccc(-c3cn(C)c4ccccc34)n2)c(OC)cc1N(C)CCN(C)C + CN1CCN(c2cc(C(=O)Nc3cc4cc(-c5cnn(C)c5)ccc4cn3)ccn2)CC1 ?
0.0
